Numbers sourced from patent US20250320312A1.

Biological target: T1, Peptide 8: Biotin-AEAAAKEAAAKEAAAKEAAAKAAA-Tyr-acid (N-terminal biotin; C-terminal acid)
T1 construct: control peptide without PC
T1 peptide: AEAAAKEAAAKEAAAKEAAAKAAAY
Test: scFv ELISA
Property: OD450; scope: individual binders
Write the answer as a number in OD450, unit excluded.

Binder	Measurement Unit	Endpoint Result
PcOxP_DB03_G03 (scFv, V domains shown, scFv in periplasmic extract) VH: EVQLLESGGGLVQPGGSLRLSCAASGFTSSDFYMEWVRQAPGKGLEWVAASRNKANDYTTEYADSVKGRFTISRDNSKNTLYLQMNSLRAEDTAVYYCARDYYGSSYWYFDVWGQGTLVTVSS VL: DIQMTQSPSSLSASVGDRVTITCTASQSISSSKHKVHYLAWYQQKPGKAPKLLIYGASNHYIGVPSRFSGSGSGTDFTLTISSLQPEDFATYYCAQFYSYPLTFGGGTKVEIK	OD450	0.08

Query (binder): PcOxP_DB01_G09 (scFv, V domains shown, scFv in periplasmic extract) VH: EVQLLESGGGLVQPGGSLRLSCAASGFTFSDYYMEWVRQAPGKGLEWVAASRNKANTYTTEYADSVKGRFTISRDNSKNTLYLQMNSLRAEDTAVYYCARDYYGSSYWYFDVWGQGTLVTVSS VL: DIQMTQSPSSLSASVGDRVTITCTASESLYSSKHKVHYLAWYQQKPGKAPKLLIYGASNLYSGVPSRFSGSGSGTDFTLTISSLQPEDFATYYCAQFYSYPLTFGGGTKVEIK ; field requested: OD450
0.05
